test: NCI Yeast Anticancer Drug Screen. Data for the cln2 rad14 strain (AID 165);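 further: 0% = growth equal to vehicle treated cultures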; details: S. cerevisiae cln2 rad14 strain, at 50.0 µM, hits give high values
This is part of a sample that, as a whole, favours compounds with a hit. Of some 79,000 tested, about 15% had one in any assay.
Form field: growth inhibition (one value per entry).
Dear colleague, please return just the value in %, with no unit written.

Reference set (5 entries):
CN(C)c1ccc(-c2c3ccc(Cl)cc3nc3ccc(Br)cc23)cc1 | -4.3
Cc1cc(-c2cc(C)c(N)cc2S(=O)(=O)O)c(S(=O)(=O)O)cc1N | -3.2
CC(=O)OC1c2ccccc2C(=O)C1(OC(C)=O)c1ccccc1 (stereo unspecified) | 25.3
Cc1cccc(C(=O)c2ccc(C)cc2C)c1 | 6.75
O=C(O)c1cccc(CO)c1O | -17.4

Now take the following compound into account.
Q) Return growth inhibition (reported value) for this compound: Nc1ncc2c(n1)CSCC2=O
A) -2.7

====

experiment: NCI Yeast Anticancer Drug Screen. Data for the mec2-1 strain (AID 157); conditions: S. cerevisiae mec2-1 strain, at 50.0 µM, hits give high values
This is part of a sample that, as a whole, favours compounds with a hit. Of some 79,000 tested, about 15% had one in any assay.
property_label: growth inhibition (%)
Dear colleague, please return just the value in %, with no unit written.

N#CC1(c2ccccc2)C(c2ccccc2)=C1c1ccccc1 | 5.15
O=C(CN1CCOCC1)Nc1ccc(S(=O)(=O)c2ccc([N+](=O)[O-])cc2)cc1 | 15
O=C1C2=C(Nc3ccccc3N2)OC1c1ccc2c(c1)OCO2 (configuration not stated) | -9.95
Cc1ccc(OC(=O)c2ccccc2)cc1CC(Cl)(Cl)Cl | -6

Now take the following compound into account.
Q) Return growth inhibition (reported value) for this compound: CSc1ccc2c(c1)Cc1cc(NC(C)=O)ccc1-2
A) -9.05

====

Experiment: NCI Yeast Anticancer Drug Screen. Data for the cln2 rad14 strain (AID 165);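 further: 0% = growth equal to vehicle treated cultures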
Details: S. cerevisiae cln2 rad14 strain, at 50.0 µM
Procedure: Growth inhibition of yeast strains with defined genetic alterations is measured as a screen for potential anti-cancer activity. Selected strains with alterations in DNA damage repair or cell cycle control were exposed to compounds and growth inhibition was measured relative to vehicle treated controls. The strain used in this assay is cln2 rad14
This is part of a sample that, as a whole, favours compounds with a hit. Of some 79,000 tested, about 15% had one in any assay. Activity calls are given as the source filed them. Cut-off read from the data, not from the text of the source: active = growth inhibition above about 70%; inactive = the rest.
Please reply with one of these outcomes: Yes (active), No (inactive)

Please review the entries below; each comes with its answer.
COc1cc(OC)c(C2c3cc4c(cc3OC(C)(N3CCCC3)C2C)OCO4)c(OC)c1 (configuration not stated) | No
CC1CP(=O)(Cc2ccccc2)C(C)(c2ccccc2)C1=O (configuration not stated) | No
CC(C(c1ccccc1)C(Br)C(=O)c1ccccc1)[N+](=O)[O-] (configuration not stated) | Yes
CC1(C)C=CC(=NO)C=C1 | No
CC(C)=CCC1=C(OCC(=O)O)C(=O)c2ccccc2C1=O | No
O=C(/C=C/c1ccc(O)c(O)c1)c1ccc(O)c(O)c1O | No
CC1/C(=N\Nc2ccc([N+](=O)[O-])cc2[N+](=O)[O-])CCC2C1(C)CCC1C2(C)CCC2(C)C3CC(C)(C)CCC3(C)CCC12C (configuration not stated) | No
O=C1c2ccccc2C(=O)N1Cc1ccc(CN2C(=O)c3ccccc3C2=O)cc1 | No
NC(=O)CNC(=O)[C@@H]1CC(OCCC(=O)O)CN1C(=O)C1CCCN1C(=O)OCc1ccccc1 (some centres not stated) | No
O=C(O)c1ccc(OCC(=O)c2ccccc2)cc1 | No

Q) Answer briefly: the call reported for CC1CCCCNC1=S (configuration not stated) in this assay.
A) No

Q) Answer briefly: the call reported for CN(C)C(=NN)N(C)C in this assay.
A) No

# credit: PubChem BioAssay (NCI)
